Tested on: Pseudomonas aeruginosa
Test: in vitro antibiotic activity by the Gradient Plate method, Pseudomonas
Format: cell-based
Conditions: read-out: Minimum Inhibitory Concentration vs. Pseudomonas aeruginosa
experimental-endpoint: MIC (µg/mL)

1) CNC(=O)NC(=O)NC(C(=O)NC1C(=O)N2C(C(=O)O)=C(COC(N)=O)CSC12)c1ccc(O)cc1 (stereo not shown)	33.3
2) CNC(=O)NC(=O)NC(C(=O)NC1C(=O)N2C(C(=O)O)=C(COC(N)=O)CSC12)c1ccccc1 (stereo not shown)	22.8
3) CN(C(=O)C=Cc1ccccc1)C(=O)NC(C(=O)NC1C(=O)N2C(C(=O)O)=C(COC(N)=O)CSC12)c1ccccc1 (stereo not shown)	21.8
4) CS(=O)(=O)N1CCN(C(=O)NC(C(=O)NC2C(=O)N3C(C(=O)O)=C(COC(N)=O)CSC23)c2ccc(O)cc2)C1=O (stereo not shown)	47.5

====

Experiment: Titration 66 percent DMF
Format: physicochemical
Conditions: 66% dmf
experimental-endpoint: pKa

1) CN(C(=O)C=Cc1ccccc1)C(=O)N[C@@H](C(=O)NC1C(=O)N2C(C(=O)O)=C(COC(N)=O)CSC12)c1ccccc1 (stereo partly shown)	4.98
